# Tested on: L1210 leukemia ip in BDF1 mice, survival T/C
# measurement-description: NCI In Vivo Anticancer Drug Screen. Data for tumor model L1210 Leukemia (intraperitoneal) in B6D2F1 (BDF1) mice
# experimental-parameters: endpoint: mean survival time; dose: 200.0 mg/kg/injection; schedule: Q04DX002 (ip); vehicle: Klucel (hydroxypropylcellulose) (HPC); higher = longer survival
Inconclusive results and toxic doses are left out.
Would you kindly list T/C for each of these compounds?

Query :: Given COC(=O)c1ccc([N+](=O)[O-])o1 , respond with its T/C.
Result :: 101 % of control

Query :: Given O=C(c1cccc([N+](=O)[O-])c1)c1sc2ccccc2c1O , respond with its T/C.
Result :: 88 % of control

Query :: Given CN(C)N=Nc1ccc(S(=O)(=O)N(CCCl)CCCl)cc1 , respond with its T/C.
Result :: 103 % of control

Query :: Given O=C(N1CCC(CCCc2ccccc2)CC1)C(Cl)(Cl)Cl , respond with its T/C.
Result :: 95 % of control

Query :: Given Nc1ccc([N+](=O)[O-])cc1Cl , respond with its T/C.
Result :: 105 % of control

Query :: Given O=C1CCC(=O)N1c1ccccc1 , respond with its T/C.
Result :: 92 % of control

Query :: Given Cc1ccc(-n2ccnc2C)c(N=Cc2ccc(N(CCCl)CCCl)cc2C)c1 , respond with its T/C.
Result :: 102 % of control

Query :: Given O=C1CN=C(c2ccccc2Cl)c2cc([N+](=O)[O-])ccc2N1 , respond with its T/C.
Result :: 108 % of control

Query :: Given O=C(CCC(=O)Nc1ccc(Cl)c(Cl)c1)Nc1ccc(Cl)c(Cl)c1 , respond with its T/C.
Result :: 89 % of control

Query :: Given C/C=C\c1ccc(OC(=O)NCCC)c(OC)c1 , respond with its T/C.
Result :: 113 % of control

Query :: Given O=C(Nc1ccccc1)c1ccco1 , respond with its T/C.
Result :: 98 % of control

Query :: Given CC(C)(C)c1ccc(S(=O)(=O)c2ccc(C(C)(C)C)c([N+](=O)[O-])c2)cc1[N+](=O)[O-] , respond with its T/C.
Result :: 92 % of control

Query :: Given CCCCNC(=O)NC(C)c1ccccc1 (stereo unspecified) , respond with its T/C.
Result :: 112 % of control

Query :: Given Cc1ccc(NC(=O)OCCSc2ccc(Cl)cc2)c([N+](=O)[O-])c1 , respond with its T/C.
Result :: 99 % of control

Query :: Given Cc1ccc([N+](=O)[O-])cc1NC(=O)NC(=O)c1ccccc1 , respond with its T/C.
Result :: 95 % of control

Query :: Given COC(=O)N/N=C/c1ccccc1OC , respond with its T/C.
Result :: 104 % of control

Query :: Given COC1OC(CCl)C(OC(=O)c2ccccc2)C(OC(=O)c2ccccc2)C1OC(=O)c1ccccc1 (stereo unspecified) , respond with its T/C.
Result :: 101 % of control

Query :: Given O=S(=O)(CBr)CC(Cl)c1ccccc1 (stereo unspecified) , respond with its T/C.
Result :: 106 % of control

Query :: Given O=C1NC(=S)S/C1=C/c1ccco1 , respond with its T/C.
Result :: 98 % of control

Query :: Given COCc1c(COc2ccc(Cl)cc2)n(C)c2ccccc12 , respond with its T/C.
Result :: 92 % of control

Query :: Given CCCCS(=O)(=O)N1CC(C)OC(C)C1 (stereo unspecified) , respond with its T/C.
Result :: 108 % of control

Query :: Given CC(C)CN=C(N)CSS(=O)(=O)O , respond with its T/C.
Result :: 94 % of control

Query :: Given OCCC#CCCCOC1CCCCO1 (stereo unspecified) , respond with its T/C.
Result :: 90 % of control

Query :: Given COc1ccc(OC)c(NCCN2C(=O)c3ccccc3C2=O)c1 , respond with its T/C.
Result :: 100 % of control

Query :: Given CCOC(=O)COc1ccc(-c2ccccc2)cc1Br , respond with its T/C.
Result :: 104 % of control

Query :: Given CCCNC(=O)Oc1ccc(C2CCCCC2)cc1 , respond with its T/C.
Result :: 100 % of control

====

# Test system: L1210 leukemia ip in BDF1 mice, survival T/C
# measurement-description: NCI In Vivo Anticancer Drug Screen. Data for tumor model L1210 Leukemia (intraperitoneal) in B6D2F1 (BDF1) mice
# experimental-parameters: endpoint: mean survival time; dose: 400.0 mg/kg/injection; schedule: Q01DX001 (ip); vehicle: saline; higher = longer survival
Toxic doses and inconclusive results are not listed.
reported-property: T/C

Query :: Given COc1ccc(/C=C2\N=C(c3ccccc3)OC2=O)c(Cl)c1OC , respond with its T/C.
Result :: 94 % of control

Query :: Given COc1cc2c(O)cc(C(=O)OC(C)(C)C)c(-c3cc(OC)c(OC)c(OC)c3)c2cc1OC , respond with its T/C.
Result :: 89 % of control

Query :: Given NNc1cc(S(=O)(=O)O)cc(C(=O)O)c1O , respond with its T/C.
Result :: 102 % of control

Query :: Given CCOC(=O)C1C(=O)N(O)c2cnccc21 (stereo unspecified) , respond with its T/C.
Result :: 88 % of control

Query :: Given CCC1(c2ccccc2)C2C(=O)NC(=O)C1C(=O)NC2=O (stereo unspecified) , respond with its T/C.
Result :: 101 % of control

Query :: Given O=[N+]([O-])c1ccn(O)c(=NC2CCCCC2)c1 , respond with its T/C.
Result :: 100 % of control

Query :: Given O=C(Cc1c[nH]c2ccccc12)N/N=C\c1c[nH]c2ccccc12 , respond with its T/C.
Result :: 92 % of control

Query :: Given CCCCCCCCCCCC(=O)OCCOCCOCCOCCOCCOCCOCCOCCOCCO , respond with its T/C.
Result :: 98 % of control

Query :: Given O=C1NC(=O)C(c2ccc(O)cc2)N1 (stereo unspecified) , respond with its T/C.
Result :: 108 % of control

Query :: Given Cc1ccc([N+](=O)[O-])cc1CN(CCO)CCO , respond with its T/C.
Result :: 98 % of control

Query :: Given Cc1ccc(CC(=O)c2c(C)[nH]c3ccccc23)cc1C , respond with its T/C.
Result :: 96 % of control

Query :: Given COc1ccc(/C=C\C(=O)OCCCCOC(=O)/C=C/c2ccc(OC)cc2)cc1 , respond with its T/C.
Result :: 95 % of control

Query :: Given CC1C(OC(=O)Cc2ccccc2)=CCC2C1(C)CCC1C2(C)CCC2(C)C3CC(C)(C)CCC3(C)CCC12C (stereo unspecified) , respond with its T/C.
Result :: 104 % of control

Query :: Given O=C(OCC1OCOC1C1OCOC1COC(=O)c1ccccc1)c1ccccc1 (stereo unspecified) , respond with its T/C.
Result :: 88 % of control

Query :: Given CCN(CC)C(=S)SS(C)(=O)=O , respond with its T/C.
Result :: 97 % of control

Query :: Given CC12CCC(C3=C1OC(=O)C(c1ccccc1)(c1ccccc1)C3=O)C2(C)C (stereo unspecified) , respond with its T/C.
Result :: 97 % of control

Query :: Given O=P1(Nc2ccc(Cl)cc2)OCC2(CO1)COP(=O)(Nc1ccc(Cl)cc1)OC2 (stereo unspecified) , respond with its T/C.
Result :: 117 % of control

Query :: Given Oc1ccc(Br)cc1/C=N/NC(=S)Nc1cccc2cccnc12 , respond with its T/C.
Result :: 96 % of control

Query :: Given Cc1cc(NS(=O)(=O)c2ccc(N=Nc3ccc(N)nc3N)cc2)nc(C)n1 , respond with its T/C.
Result :: 100 % of control

Query :: Given NC(N)=NNO , respond with its T/C.
Result :: 101 % of control

Query :: Given COC(=O)C(NC(=O)C(C)NC(=O)OC(C)(C)C)C(C)O (stereo unspecified) , respond with its T/C.
Result :: 101 % of control

Query :: Given NC(=S)N/N=C/c1ccc(O)cn1 , respond with its T/C.
Result :: 109 % of control

Query :: Given O=C(O)CS(=O)(=O)C(c1ccccc1)c1ccccc1 , respond with its T/C.
Result :: 96 % of control

Query :: Given O=C1C(c2c[nH]c3ccc(Br)cc23)=Nc2ccc([N+](=O)[O-])cc21 , respond with its T/C.
Result :: 93 % of control

Query :: Given Cc1ccc(C)c2c1C1=C(CCCC1)S2(=O)=O , respond with its T/C.
Result :: 104 % of control

Query :: Given N#CCC1C(=O)Nc2ccccc21 (stereo unspecified) , respond with its T/C.
Result :: 101 % of control

====

Would you kindly list T/C for each of these compounds?
# System: L1210 leukemia ip in BDF1 mice, survival T/C
# measurement-description: NCI In Vivo Anticancer Drug Screen. Data for tumor model L1210 Leukemia (intraperitoneal) in B6D2F1 (BDF1) mice
# experimental-parameters: endpoint: mean survival time; dose: 100.0 mg/kg/injection; schedule: Q01DX009 (ip); vehicle: saline with Tween-80; higher = longer survival
Toxic doses and inconclusive results are not listed.

Query :: Given NC(=O)CC(NC(=O)OCc1ccccc1)c1nn[nH]n1 (stereo not drawn) , respond with its T/C.
Result :: 104 % of control

Query :: Given COc1ccc(C(CC(=O)c2ccc3c(c2)OCO3)c2c(O)c3ccccc3oc2=O)cc1OC (stereo not drawn) , respond with its T/C.
Result :: 96 % of control

Query :: Given Cc1csc(/N=C/c2ccc([N+](=O)[O-])o2)n1 , respond with its T/C.
Result :: 105 % of control

Query :: Given CC1=C(C)C(=O)C(CC2=C(C)C(=O)C(C)=C(C)C2=O)=C(C)C1=O , respond with its T/C.
Result :: 96 % of control

Query :: Given Cc1cc(Cl)c2ccccc2c1N , respond with its T/C.
Result :: 106 % of control

Query :: Given NC(N)=NC(N)=Nc1ccc(S(=O)(=O)c2ccc(N=C(N)N=C(N)N)cc2)cc1 , respond with its T/C.
Result :: 95 % of control

Query :: Given OC(Cc1nccc2ccccc12)(C(F)(F)F)C(F)(F)F , respond with its T/C.
Result :: 93 % of control

Query :: Given O=C(/C=C/c1ccccc1)c1ccc(Cl)c(Cl)c1 , respond with its T/C.
Result :: 101 % of control
